Target: Smc5/6 hexamer (Smc5, Smc6, Nse1, Nse2, Nse3, Nse4) (Saccharomyces cerevisiae, UniProt Q08204;Q12749;Q07913;P38632;Q05541;P43124 1-1093;1-1114;1-336;1-267;1-303;1-402)
Experiment: fluorescence anisotropy; ATPase buffer: 10 mM Hepes-KOH pH 7.5, 150 mM K-OAc, 2 mM MgCl2, 20% glycerol; anisotropy at 25 C; plasmid pulldown bound at room temperature, high-salt buffer
Conditions: protein: recombinant; tags: C-terminal 3C-Twin-Strep on Smc6; copies: 1;1;1;1;1;1; blunt
pKd: −log10 of the molar value.

binder: 40bpDNA (STI699/STI700) (dsDNA) DNA 1: TTAGTTGTTCGTAGTGCTCGTCTGGCTCTGGATTACCCGC DNA 2: GCGGGTAATCCAGAGCCAGACGAGCACTACGAACAACTAA
pKd: ~6.82
